Molecular target: Recombinant human Syk (amino acids 342-635), GST-Syk kinase fusion protein (Homo sapiens (Human))
Assay: Syk kinase test (Kinase Glo luminescence)
Type: biochemical
Settings: read-out: IC50 in μM (SYK-Inhibition)
Entries whose IC50 is below 0.02 µM take class 1; entries at or above 0.02 µM take class 0.

[[record]]
smiles_notation = "CC(C)Oc1ccc(-c2cc(O[C@H](C)[C@H]3CNC(=O)C3)c3cn(C)nc3c2)cn1"
label_class = "class 0"

[[record]]
smiles_notation = "COc1cc(-c2cc3nn(C)cc3c(O[C@H](C)[C@H]3CNC(=O)C3)n2)cc(OC)c1OC"
label_class = "class 0"

[[record]]
smiles_notation = "Cc1nc2ccc(-c3cc(O[C@H](C)[C@H]4CNC(=O)C4)c4cccnc4c3)cc2s1"
label_class = "class 1"

[[record]]
smiles_notation = "COc1cc(-c2cc3ncccc3c(O[C@H](C)[C@H]3CNC(=O)C3)n2)cc(OC)c1OC"
label_class = "class 1"

[[record]]
smiles_notation = "COc1ccc(-c2cc3nn(C)cc3c(O[C@H](C)[C@H]3CNC(=O)C3)n2)cc1OC"
label_class = "class 1"

[[record]]
smiles_notation = "C[C@@H](Oc1cc(-c2ccc(C3CCN(C)CC3)cc2)cc2nn(C)cc12)[C@H]1CNC(=O)C1"
label_class = "class 1"

[[record]]
smiles_notation = "C[C@@H](Oc1nc(-c2ccc3c(cnn3C)c2)cc2nn(C)cc12)[C@H]1CNC(=O)C1"
label_class = "class 1"

[[record]]
smiles_notation = "Cc1nc2cc(-c3cc(O[C@H](C)[C@H]4CNC(=O)C4)c4cccnc4c3)ccc2n1C"
label_class = "class 1"

[[record]]
smiles_notation = "COc1ccc(-c2cc3nn(C)cc3c(O[C@H](C)[C@H]3CNC(=O)C3)n2)cn1"
label_class = "class 0"

